experiment: H69AR cell proliferation blockers – human, duplicate replicates, primary screen (AID 580); conditions: H69AR lung tumor cells viability, ATP luminescence, 72 h; at 10 µM; active compounds read low;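 further: 100% = mean luminescence of untreated wells and 0% = no signal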

| compound | viability / % |
| --- | --- |
| COC(=O)Cn1c(=NC(=O)CSCC(=O)Nc2cc(C)on2)sc2ccccc21 | 88.5 |
| COc1ccc(NC(=O)CC2CCCCC2)cc1OC | 103 |
| COc1ccc(-n2c(Cc3cccn3C)nnc2SCC(=O)Nc2ccccc2)cc1 | 82.2 |
| CCOC(=O)C1CCCN(C(=O)c2ccc(CS(=O)(=O)c3ccc(Br)cc3)o2)C1 (stereo unspecified) | 95.6 |
| COCCNC(=O)CN1CCN(Cc2cccc(Cl)c2)C1=O | 103 |
| CCOc1ccc(NC(=O)C(C)Sc2nnc(C)n2C)cc1 (stereo unspecified) | 98.8 |
| CC(OC(=O)C1CC=CCC1C(N)=O)C(Cl)=C(Cl)Cl (stereo unspecified) | 93.7 |
| COc1ccccc1N1CCN(c2cc(=O)n(Cc3ccc(F)cc3)c(=O)[nH]2)CC1 | 12.1 |
| NC(=O)C1CCN(C(=O)c2cc3n(n2)C(C(F)(F)F)CC(c2ccco2)N3)CC1 (stereo unspecified) | 85 |
| CC(C)OC(=O)c1ccc(OC(=O)c2cccnc2)cc1 | 106 |
| Cc1ccc(N(C)C(=O)N2CCN(c3ccccn3)CC2)cc1 | 98.2 |
| CC1CC(NC(=O)c2cnc3n(c2=O)CCS3)CC(C)(C)C1 (stereo unspecified) | 91.7 |
| CCc1cccc(NC(=O)Cn2cc3c(n2)CCCC3)c1 | 94.8 |
| N#Cc1ccc(-c2csc(NC(=O)C3CC3)n2)cc1 | 91.9 |
| COC(=O)C1=C(C)Nc2ncnn2C1c1ccc(C)o1 (stereo unspecified) | 91.7 |
| CCOC(=O)Nc1c(O)ccc2oc(C)c(-c3ccccc3)c12 | 99.8 |
